Just for reference, ChEMBL document CHEMBL1124865 is where these values come from.

# System: Klebsiella pneumoniae
# Procedure Details: Antibacterial activity against Klebsiella pneumoniae X26
# Type: functional
# Reported Conditions: Klebsiella pneumoniae; read-out: MIC
Parameter Measured: MIC

Some entries whose results are on file:
# MIC measured on Klebsiella pneumoniae for item CO/N=C(\C(=O)N[C@@H]1C(=O)N2C(C(=O)[O-])=C(C[n+]3ccc4sc(C)cc4c3)CS[C@H]12)c1csc(N)n1 = < 8 ng/mL

Measured MIC (Klebsiella pneumoniae), entry CO/N=C(\C(=O)N[C@@H]1C(=O)N2C(C(=O)[O-])=C(C[n+]3ccc4sc(N)cc4c3)CS[C@H]12)c1csc(N)n1 : < 8 ng/mL

For CO/N=C(\C(=O)N[C@@H]1C(=O)N2C(C(=O)[O-])=C(C[n+]3cccc4ccoc43)CS[C@H]12)c1csc(N)n1 on Klebsiella pneumoniae, measured MIC was < 8 ng/mL

Would you kindly look at the next entry?
// assay Klebsiella pneumoniae, entry CO/N=C(\C(=O)N[C@@H]1C(=O)N2C(C(=O)[O-])=C(C[n+]3cccc4cc(O)ccc43)CS[C@H]12)c1csc(N)n1 , MIC value = < 8 ng/mL
